Protocol Summary: Solubility in solvents pre-saturated with aqueous buffer at 55° C.
Type: physicochemical
Condition Description: aqueous buffer
Property Name: solubility (mg/mL)

compound="OC1C(CCl)OC(OCC2OC(OC3(CCl)OC(CCl)C(O)C3O)C(O)C(O)C2Cl)C(O)C1O (stereo not shown) [TCR]" measurement_units=mg/mL endpoint_value=150

----------
Protocol Summary: Solubility in solvents pre-saturated with aqueous buffer at 55° C.
Assay type: physicochemical
Condition Description: water (aqueous buffer), 55° C.
Property Name: solubility (mg/mL)

molecule="OC1C(CCl)OC(OCC2OC(OC3(CCl)OC(CCl)C(O)C3O)C(O)C(O)C2Cl)C(O)C1O (centres unmarked)" property_name=solubility endpoint_value=150
molecule=OC[C@H]1O[C@H](O[C@]2(CCl)O[C@H](CCl)[C@@H](O)[C@@H]2O)[C@H](O)[C@@H](O)[C@H]1Cl property_name=solubility endpoint_value=300

----------
Protocol Summary: Solubility in solvents pre-saturated with aqueous buffer at 55° C.
Assay type: physicochemical
Condition Description: organic solvent or mixture; n-octanol pre-saturated with aqueous buffer, 55° C.
The compounds listed here are annotated with their solubility.
Property Name: solubility (mg/mL)

compound="OC[C@H]1O[C@H](O[C@]2(CCl)O[C@H](CCl)[C@@H](O)[C@@H]2O)[C@H](O)[C@@H](O)[C@H]1Cl [sucralose]" bound_sign=< endpoint_value=10
compound="OC1C(CCl)OC(OCC2OC(OC3(CCl)OC(CCl)C(O)C3O)C(O)C(O)C2Cl)C(O)C1O (centres unmarked) [TCR]" bound_sign== endpoint_value=50

----------
Protocol Summary: Solubility in solvents pre-saturated with aqueous buffer at 55° C.
Format: physicochemical
Condition Description: organic solvent or mixture; methyl isobutyl ketone pre-saturated with aqueous buffer, 55° C.
Each item that follows carries a reported solubility.
Property Name: solubility (mg/mL)

molecule="OC1C(CCl)OC(OCC2OC(OC3(CCl)OC(CCl)C(O)C3O)C(O)C(O)C2Cl)C(O)C1O (centres unmarked) [TCR]" property_name=solubility measurement_units=mg/mL bound_sign=> endpoint_value=500
molecule="OC[C@H]1O[C@H](O[C@]2(CCl)O[C@H](CCl)[C@@H](O)[C@@H]2O)[C@H](O)[C@@H](O)[C@H]1Cl [sucralose]" property_name=solubility measurement_units=mg/mL bound_sign== endpoint_value=60

----------
Protocol Summary: Solubility in solvents pre-saturated with aqueous buffer at 55° C.
Format: physicochemical
Condition Description: organic solvent or mixture; hydrophilic water-immiscible solvents (ethyl acetate, n-butanol, methyl isobutyl ketone)
Property Name: solubility

compound="OC1C(CCl)OC(OCC2OC(OC3(CCl)OC(CCl)C(O)C3O)C(O)C(O)C2Cl)C(O)C1O (stereo not shown) [TCR]" property_name=solubility endpoint_value="> 500 mg/mL"
